Fold change to WT CD80: recorded values
- system.under.test: T1, human CTLA-4 (human, UniProt P16410 36-223)
- T1 construct: also called huCTLA4
- run.description: flow cytometry on CHO cells stably expressing CTLA4; vs CD80 WT IgV-Fc
# output: bare number, implied unit fold

Example entries and their recorded answers appear below.
binder	units.text	obs.value
CD80 E35D/M47V/N48K/V68M/K89N IgV-Fc, delta linker (Fc fusion, Fused directly to the Fc with no additional linker; also called E35D/M47V/N48K/V68M/K89N delta) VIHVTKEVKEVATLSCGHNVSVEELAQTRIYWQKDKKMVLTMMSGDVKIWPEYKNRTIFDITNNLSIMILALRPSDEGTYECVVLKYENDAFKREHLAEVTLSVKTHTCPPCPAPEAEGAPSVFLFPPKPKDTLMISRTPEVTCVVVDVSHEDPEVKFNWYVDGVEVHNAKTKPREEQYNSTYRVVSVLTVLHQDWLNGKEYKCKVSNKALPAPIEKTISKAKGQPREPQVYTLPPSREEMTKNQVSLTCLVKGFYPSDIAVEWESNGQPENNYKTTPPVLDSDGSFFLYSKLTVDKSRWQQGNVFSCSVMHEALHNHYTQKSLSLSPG	fold	2.6
CD80 E35D/D46V/M47L/V68M/L85Q/E88D IgV-Fc, GS(G4S)5 linker (Fc fusion, not shown: a dimerising Fc or GST) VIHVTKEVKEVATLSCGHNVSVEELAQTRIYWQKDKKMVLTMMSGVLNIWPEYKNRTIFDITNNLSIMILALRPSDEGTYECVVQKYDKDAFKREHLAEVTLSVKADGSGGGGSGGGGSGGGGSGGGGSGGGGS	fold	22.2

Next:
# query: Fold change to WT CD80 of entry CD80 E35D/D46V/M47L/V68M/L85Q/E88D IgV-Fc, EAAAK linker (Fc fusion, not shown: a dimerising Fc or GST) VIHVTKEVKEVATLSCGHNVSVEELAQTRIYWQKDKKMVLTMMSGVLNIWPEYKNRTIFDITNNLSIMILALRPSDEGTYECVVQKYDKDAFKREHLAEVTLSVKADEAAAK 24.2

Reference source for all entries: patent US20210130436A1
